Hey, just so you know, these numbers are from patent US9150579B2.

// reported pEC50 for each item listed
Tested on: PI3Kδ signalling in basophils
Assay remarks: Assay 4: Inhibition of PI3Kδ signalling in basophils from human whole blood (anti-FcεR1 induced CD63 expression)
Run conditions: read-out: EC50, inhibition of anti-FcεR1 mediated CD63 expression
pEC50: −log10 of the molar value.

CC(C)Oc1ccc(-c2nn([C@@H](C)c3oc4ccc(F)cc4c(=O)c3-c3cccc(F)c3)c3ncnc(N)c23)cc1F
≥ 7.00

Please examine the following record next.
Query string: // query pEC50 value for entry `CC(C)Oc1ccc(-c2nn([C@@H](C)c3oc4ccccc4c(=O)c3-c3cccc(F)c3)c3ncnc(N)c23)cc1F`
Result string: ≥ 7.00

----------
Assay remarks: Metabolic stability in human liver microsomes
Type: in vitro ADME
Run conditions: 1 μM test item, 60 minutes, NADPH
Reported property: Metabolic stability in liver microsomes, Human (percent parent compound remaining) (%)
Reply with just the number (in %).

Recorded Metabolic stability in liver microsomes, Human (percent parent compound remaining), per entry:
CC(C)Oc1ccc(-c2nn([C@H](C)c3oc4ccccc4c(=O)c3-c3cccc(F)c3)c3ncnc(N)c23)cc1F
11.4
CC(C)Oc1ccc(-c2nn([C@@H](C)c3oc4ccc(F)cc4c(=O)c3-c3cccc(F)c3)c3ncnc(N)c23)cc1F
74.9
CC(C)Oc1ccc(-c2nn(C(C)c3oc4ccc(F)cc4c(=O)c3-c3cccc(F)c3)c3ncnc(N)c23)cc1F (racemic)
46.9
CC(C)Oc1ccc(-c2nn([C@@H](C)c3oc4ccccc4c(=O)c3-c3cccc(F)c3)c3ncnc(N)c23)cc1F
54.5
CC(C)Oc1ccc(-c2nn(C(C)c3oc4ccccc4c(=O)c3-c3cccc(F)c3)c3ncnc(N)c23)cc1F (racemic)
38.4

Please examine the following record next.
Query string: // query Metabolic stability in liver microsomes, Human (percent parent compound remaining) value for entry `CC(C)Oc1ccc(-c2nn([C@H](C)c3oc4ccc(F)cc4c(=O)c3-c3cccc(F)c3)c3ncnc(N)c23)cc1F`
Result string: 27.5
